Hey, just so you know, these numbers are from paper PMC10053369.

Molecular target: hP2X7 (47–334 a.a., extracellular domain, 36.8 kDa) (Homo sapiens, UniProt Q99572)
Construct: hP2X7 (47–334 a.a., extracellular domain, 36.8 kDa); purchased Abbexa LTD, Cambridge, UK abx167020
Sequence (Q99572 47-334): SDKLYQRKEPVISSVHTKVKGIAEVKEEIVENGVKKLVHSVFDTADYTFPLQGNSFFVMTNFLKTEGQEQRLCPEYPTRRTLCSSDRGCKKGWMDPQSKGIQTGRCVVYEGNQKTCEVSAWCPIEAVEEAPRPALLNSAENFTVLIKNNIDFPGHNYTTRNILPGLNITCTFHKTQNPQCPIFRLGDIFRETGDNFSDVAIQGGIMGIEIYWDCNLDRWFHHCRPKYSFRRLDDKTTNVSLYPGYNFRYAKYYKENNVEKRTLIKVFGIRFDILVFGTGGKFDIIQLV
Assay: Surface plasmon resonance (Biacore 3000)
Type: binding
Details: model: binding with two states; 25 °C, HBS-N pH 7.4; n = 3
Protocol: SPR analysis was performed at 25 °C using a Biacore® 3000 optical biosensor (GE Healthcare, Chicago, IL, USA) and CM5 sensor chips. […] Lyophilized peptides were prepared as 100 μM stock solutions in HBS-N buffer. […] The dissociation of the formed peptide/P2X7 complexes was recorded for at least 6 min from the moment of injection at the same flow rate after the injection of the sample. […]
Positions of bridges follow the written chain, without caps; N, C: chain ends. No end group written: not given here.
readout label: pKd
// scale note: pKd = -log10(conc_M); give the bare number

Response field pKd (hP2X7 (47–334 a.a., extracellular domain, 36.8 kDa) (Homo sapiens, UniProt Q99572)) for item RGICSEPKVVGPCKAGLRRFYYDSETGECKPFIYGGCKGNKNNFETLHACRGICRA (disulfide 4-54, 13-37, 29-50 (inferred)) [HCRG1] : 5.15

----------
Target: hP2X7 (47–334 a.a., extracellular domain, 36.8 kDa) (Homo sapiens)
Construct: hP2X7 (47–334 a.a., extracellular domain, 36.8 kDa); purchased Abbexa LTD, Cambridge, UK abx167020
Assay: Surface plasmon resonance (Biacore 3000)
Type: binding
Conditions: model: binding 1:1 (Langmuir); 25 °C, HBS-N pH 7.4; n = 3
Method: SPR analysis was performed at 25 °C using a Biacore® 3000 optical biosensor (GE Healthcare, Chicago, IL, USA) and CM5 sensor chips. […] Lyophilized peptides were prepared as 100 μM stock solutions in HBS-N buffer. […] The dissociation of the formed peptide/P2X7 complexes was recorded for at least 6 min from the moment of injection at the same flow rate after the injection of the sample. […]
Positions of bridges follow the written chain, without caps; N, C: chain ends. No end group written: not given here.
readout label: Kd (µM)
Numbers only here, please. The scale is µM.

// GSICLEPKVVGPCTAYLRRFYFDSETGKCTPFIYGGCEGNGNNFETLRACRAICRA (disulfide 4-54, 13-37, 29-50) [HCGS1.10] : Kd value = 26.3
